The origin of these recorded values is patent US20150105252A1.

Catalogue of molecules with associated Barnyardgrass plant response rating
System: barnyardgrass
PROCEDURE SUMMARY: Test A postemergence
Format: in vivo, Echinochloa crus-galli
EXPERIMENTAL PARAMETERS: Postemergence, 1000 g ai/ha; visual rating after approx. 10 days, 0 to 100 scale (0 no effect, 100 complete control)
Please state the value as a number alone, without comment.

Here's what some known entries look like.
C#CCNC(=O)c1cc(CC)n(Cc2cccc(C(F)(F)F)c2)n1 [Compound 41] | 10
Cc1cc(C(=O)NCC(F)(F)F)nn1Cc1ccnc(C(F)(F)F)c1 [Compound 74] | 90
CCCc1cc(C(=O)NCC(F)(F)F)nn1Cc1cccc(OC(F)(F)F)c1 [Compound 32] | 40
CCc1cc(C(=O)NC2CC2)nn1Cc1cccc(OC(F)(F)F)c1 [Compound 26] | 70

// switching to the query molecule
Which measured Barnyardgrass plant response rating value corresponds to C#CCNC(=O)c1cc(CC)n(Cc2cccc(OC(F)(F)F)c2)n1 [Compound 54] ?
10
